# Tested on: SK-MEL-2 melanoma
# RUN_DESCRIPTION: NCI-60 one-dose screen, 48 h (100 = growth as untreated, 0 = no growth, -100 = all killed)
# MEASUREMENT_CONDITIONS: 10 µM unless noted
The panel holds about 83,000 compounds, 20% with a hit somewhere; the sample as a whole holds those more often.
PROPERTY: growth (%)
Write the number in % without appending the unit.

Below, 3 compounds whose answers are already recorded.
CCCCCCCC(=O)OCC/C=C/C1OC1C1OC(=O)/C=C\C=C\C(=O)N(C(C)=O)C(=O)/C=C(/C)CCC2OC2C1OC(=O)NC(C)=O (configuration not stated): 89.8
C[C@@H](Nc1ncnc2ccc(-c3cnc(N)nc3)cc12)c1ccc(F)cc1: 101
CCN(CC)CCn1c(=O)c2cc(OC)c(OC)cc2c2ccc3cc4c(cc3c21)OCO4: 93.2

What does the data say about its growth? Entry: O=C1c2cccc3c(-c4ccc5c(c4)ncn5C4CCCCC4)ccc(c23)C(=O)N1c1nc2ccccc2s1
81.4

What does the data say about its growth? Entry: CCN(CC)c1ccc(/C=N/NC(=O)CSc2nc3ccccc3c(=O)n2Cc2ccc(S(N)(=O)=O)cc2)c(O)c1
10.5

What does the data say about its growth? Entry: CCOC(=O)c1cc(C(=O)c2cc(OC)cc(OC)c2)n2ccc3ccccc3c12
102

What does the data say about its growth? Entry: C/C=C(\C)C(=O)NC1=CC[C@@]2(C)C(=CCC3C2CC[C@@]2(C)C3CC[C@@H]2C(C)N(C)C)C1=O (some centres not stated)
86.5

What does the data say about its growth? Entry: CCOC(=O)c1cc(C(=O)c2ccc(OC)cc2)n2ccc(/C=C/c3cc[n+](CC(=O)c4ccc(OC)cc4)cc3)cc12
100

What does the data say about its growth? Entry: COc1cc2cc(Oc3cccc(NC(=O)Nc4cc(C(F)(F)F)cc(C(F)(F)F)c4)c3)c(C)nc2cc1OC
-30.4
